ASPARTATE AMINOTRANSFERASE values, listed per item
- Organism: Rattus norvegicus
- test.method.notes: DrugMatrix - Regimen: Daily Repeat
- Format: toxicity, organism-based, Sprague-Dawley
- Design: regimen Daily Repeat, gender Male, age 6-8 weeks
- reported.conditions: in vivo, po, 0 mg/kg, 72 h, tissue Plasma, route oral GAVAGE, dose level Control, time 3 day, […]
Please provide the amount together with its unit, number first.

Here are 2 compounds together with their reported answers.
Cc1noc(NS(=O)(=O)c2ccc(N)cc2)c1C = 88 u/L
CC(C)C(=O)Nc1ccc([N+](=O)[O-])c(C(F)(F)F)c1 [FLUTAMIDE] = 87.5 u/L

Look up and state reported ASPARTATE AMINOTRANSFERASE for CN(C)c1nc(N(C)C)nc(N(C)C)n1
83.83 u/L

Look up and state reported ASPARTATE AMINOTRANSFERASE for O=C(O)CCCc1ccc(N(CCCl)CCCl)cc1
97.17 u/L

Look up and state reported ASPARTATE AMINOTRANSFERASE for Cc1oncc1C(=O)Nc1ccc(C(F)(F)F)cc1 [LEFLUNOMIDE]
101.33 u/L

====

- Species on record: Rattus norvegicus
- test.method.notes: DrugMatrix - Regimen: Daily Repeat
- Assay type: toxicity, organism-based, Sprague-Dawley
- Set-up: regimen Daily Repeat, gender Male, age 6-8 weeks
- reported.conditions: in vivo, po, 0 mg/kg, 120 h, tissue Blood, route oral GAVAGE, dose level Control, time 5 day, vehicle .5 % CMC
measured.property: MEAN CORPUSCULAR VOLUME (fL)
Enter your answer as a number in fL; do not include the unit.

CCCCc1oc2ccccc2c1C(=O)c1cc(I)c(OCCN(CC)CC)c(I)c1 = 59.55

Look up and state reported MEAN CORPUSCULAR VOLUME for CCn1cc(C(=O)O)c(=O)c2cc(F)c(N3CCNCC3)cc21
61.82

Look up and state reported MEAN CORPUSCULAR VOLUME for N=C(N)NCCN1CCCCCCC1
60.65

Look up and state reported MEAN CORPUSCULAR VOLUME for COc1nc(C)nc(Cl)c1N=C1NCCN1
62.4

Look up and state reported MEAN CORPUSCULAR VOLUME for OCCN(CCO)c1nc(N2CCCCC2)c2nc(N(CCO)CCO)nc(N3CCCCC3)c2n1
60.65

Look up and state reported MEAN CORPUSCULAR VOLUME for CCCN1C[C@H](CSC)C[C@@H]2c3cccc4[nH]cc(c34)C[C@H]21 [PERGOLIDE]
63.47

Look up and state reported MEAN CORPUSCULAR VOLUME for CCOP(=S)(OCC)Oc1nc(Cl)c(Cl)cc1Cl
65.9

Look up and state reported MEAN CORPUSCULAR VOLUME for NC1=NC(=O)C(c2ccccc2)O1 (stereo not drawn)
64.47

Look up and state reported MEAN CORPUSCULAR VOLUME for ClC(Br)Br
61.78

Look up and state reported MEAN CORPUSCULAR VOLUME for CC(C)(C)NC(=O)[C@@H]1C[C@@H]2CCCC[C@@H]2CN1C[C@@H](O)[C@H](Cc1ccccc1)NC(=O)[C@H](CC(N)=O)NC(=O)c1ccc2ccccc2n1
61.92

====

URIC ACID values, listed per item
- Organism: Rattus norvegicus
- test.method.notes: DrugMatrix - Regimen: Daily Repeat
- Type: toxicity, organism-based, Sprague-Dawley
- Design: regimen Daily Repeat, gender Male, age 6-8 weeks
- reported.conditions: in vivo, po, 0 mg/kg, 120 h, tissue Plasma, route oral GAVAGE, dose level Control, time 5 day, […]
Enter your answer as a number in mg/dL; do not include the unit.

C[C@@H]1CN(c2c(F)c(N)c3c(=O)c(C(=O)O)cn(C4CC4)c3c2F)C[C@H](C)N1 [SPARFLOXACIN] = 1.52

Look up and state reported URIC ACID for O=NN(CCCl)C(=O)NC1CCCCC1 [LOMUSTINE]
1.52

Look up and state reported URIC ACID for O=c1oc2ccccc2c(O)c1Cc1c(O)c2ccccc2oc1=O [DICUMAROL]
0.77

Look up and state reported URIC ACID for CC(C)C(=O)Nc1ccc([N+](=O)[O-])c(C(F)(F)F)c1 [FLUTAMIDE]
0.85

Look up and state reported URIC ACID for Cc1ccc(-c2cc(C(F)(F)F)nn2-c2ccc(S(N)(=O)=O)cc2)cc1 [CELECOXIB]
1.12

Look up and state reported URIC ACID for Cc1noc(NS(=O)(=O)c2ccc(N)cc2)c1C [SULFISOXAZOLE]
1.55

Look up and state reported URIC ACID for Cc1oncc1C(=O)Nc1ccc(C(F)(F)F)cc1 [LEFLUNOMIDE]
0.63

Look up and state reported URIC ACID for O=C(O)CCCc1ccc(N(CCCl)CCCl)cc1 [CHLORAMBUCIL]
1.12

Look up and state reported URIC ACID for CN(C)c1nc(N(C)C)nc(N(C)C)n1 [ALTRETAMINE]
1.52

Look up and state reported URIC ACID for CCOC(=O)C1=C(COCCN)NC(C)=C(C(=O)OC)C1c1ccccc1Cl (stereo not given) [AMLODIPINE]
1.52

====

- Species on record: Rattus norvegicus
- test.method.notes: DrugMatrix - Regimen: Daily Repeat
- Assay type: toxicity, organism-based, Sprague-Dawley
- Parameters: regimen Daily Repeat, gender Male, age 6-8 weeks
- reported.conditions: in vivo, po, 0 mg/kg, 72 h, tissue Blood, route oral GAVAGE, dose level Control, time 3 day, vehicle 100 % WATER
// label = YES if ABSOLUTE MONOCYTE is not less than 200 CELLS/uL, otherwise NO

Check out these entries, answers already filled in.
CC(O)CO (centres undefined) = YES
Cc1onc(-c2ccccc2Cl)c1C(=O)N[C@@H]1C(=O)N2[C@@H]1SC(C)(C)[C@@H]2C(=O)O = YES
Cn1cc[nH]c1=S = NO
C[C@](N)(Cc1ccc(O)c(O)c1)C(=O)O = YES
C[C@H](CS)C(=O)N1CCC[C@H]1C(=O)O = NO
COc1cc2nc(N3CCN(C(=O)C4COc5ccccc5O4)CC3)nc(N)c2cc1OC (centres undefined) = NO
C[C@H]1c2cccc(O)c2C(=O)C2=C(O)[C@]3(O)C(=O)C(C(N)=O)=C(O)[C@@H](N(C)C)[C@@H]3[C@@H](O)[C@@H]21.O = NO
Clc1cccc(Cl)c1N=C1NCCN1 = NO

Evaluate CN(C)CCCN1c2ccccc2Sc2ccc(Cl)cc21 : ABSOLUTE MONOCYTE at minimum 200 CELLS/uL?
YES

Evaluate c1ccc([C@H]2CN3CCSC3=N2)cc1 : ABSOLUTE MONOCYTE at minimum 200 CELLS/uL?
NO

Evaluate C=CCC1(C(C)CCC)C(=O)NC(=O)NC1=O (centres undefined) : ABSOLUTE MONOCYTE at minimum 200 CELLS/uL?
NO

Evaluate N[C@@H](Cc1ccc(O)c(O)c1)C(=O)O : ABSOLUTE MONOCYTE at minimum 200 CELLS/uL?
NO

Evaluate CNNCc1ccc(C(=O)NC(C)C)cc1 : ABSOLUTE MONOCYTE at minimum 200 CELLS/uL?
NO

Evaluate NCCCCCC(=O)O : ABSOLUTE MONOCYTE at minimum 200 CELLS/uL?
YES

====

- Organism: Rattus norvegicus
- test.method.notes: DrugMatrix - Regimen: Daily Repeat
- Type: toxicity, organism-based, Sprague-Dawley
- Parameters: regimen Daily Repeat, gender Male, age 6-8 weeks
- reported.conditions: in vivo, po, 0 mg/kg, 72 h, tissue Plasma, route oral GAVAGE, dose level Control, time 3 day, vehicle 100 % WATER
measured.property: GLUCOSE (mg/dL)
Enter your answer as a number in mg/dL; do not include the unit.

Look up and state reported GLUCOSE for Nc1c2c(nc3ccccc13)CCCC2
175

Look up and state reported GLUCOSE for Cn1cc[nH]c1=S
135.67

Look up and state reported GLUCOSE for C[C@H](CS)C(=O)N1CCC[C@H]1C(=O)O
187.5

Look up and state reported GLUCOSE for C[C@](N)(Cc1ccc(O)c(O)c1)C(=O)O
178.5

Look up and state reported GLUCOSE for N[C@@H](Cc1ccc(O)c(O)c1)C(=O)O
173.83

Look up and state reported GLUCOSE for CN(C)CCCN1c2ccccc2Sc2ccc(Cl)cc21
154

Look up and state reported GLUCOSE for CNNCc1ccc(C(=O)NC(C)C)cc1
148

Look up and state reported GLUCOSE for C[C@H]1c2cccc(O)c2C(=O)C2=C(O)[C@]3(O)C(=O)C(C(N)=O)=C(O)[C@@H](N(C)C)[C@@H]3[C@@H](O)[C@@H]21.O
173.83

Look up and state reported GLUCOSE for CC(O)CO (stereo not given)
163

Look up and state reported GLUCOSE for Cc1onc(-c2ccccc2Cl)c1C(=O)N[C@@H]1C(=O)N2[C@@H]1SC(C)(C)[C@@H]2C(=O)O
163
